Data provenance is patent US20220048967A1.

- System: T1, human gastric inhibitory peptide receptor (GIPR) (human, UniProt P48546 22-466)
- T1 sequence (looked up): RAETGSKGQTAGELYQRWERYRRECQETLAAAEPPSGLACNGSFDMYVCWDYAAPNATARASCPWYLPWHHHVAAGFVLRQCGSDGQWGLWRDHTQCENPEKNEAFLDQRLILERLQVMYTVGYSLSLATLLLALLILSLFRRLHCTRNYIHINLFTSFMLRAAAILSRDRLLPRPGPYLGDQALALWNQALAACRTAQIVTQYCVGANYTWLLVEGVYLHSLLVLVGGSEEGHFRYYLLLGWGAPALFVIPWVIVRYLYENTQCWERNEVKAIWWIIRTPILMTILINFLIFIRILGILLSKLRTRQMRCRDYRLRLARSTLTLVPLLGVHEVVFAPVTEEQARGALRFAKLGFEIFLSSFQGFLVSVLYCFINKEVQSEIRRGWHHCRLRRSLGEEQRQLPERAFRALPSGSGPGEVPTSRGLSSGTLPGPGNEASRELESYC
- Assay procedure: cell-based or functional assay
Square brackets hold non-standard residues; d marks the D form. Ends that are not written are not given here. αMeF = C[C@](N)(Cc1ccccc1)C(=O)O; Aib = CC(C)(N)C(=O)O
Recorded measurements of hGIPR cAMP EC50 ratio, one per entry
Recorded metric: hGIPR cAMP EC50 ratio

Binder: Y[Aib]EGT[αMeF]TSDYSIXLDKKAQ[Aib][Aib]FIEYLIEGGPSSGAPPPS-NH2 (not fully specified (residues 13, 17); printed as Y-Aib-EGT-αMeF-TSDYSI-αMeF-LDKK((2-[2-(2-Amino-ethoxy)-ethoxy]-acetyl)2-(γ-Glu)-CO-(CH2)18-CO2H)AQ-Aib-Aib-FIEYLIEGGPSSGAPPPS-NH2) [Example 143]
Recorded metric: hGIPR cAMP EC50 ratio
Value reported: 2.78

Binder: YXEGTXTSDXSIXLDEKAQXEFIXYLIEGGPSSGAPPPS (Y-Aib-EGT-αMeF(2F)-TSD-3Pal-SI-αMeF-LDEK((2-[2-(2-Amino-ethoxy)-ethoxy]-acetyl)2-(γ-Glu)-CO-(CH2)18-CO2H)AQ-Aib-EFI-(D-Glu)-YLIEGGPSSGAPPPS-NH2) [Example 181]
Recorded metric: hGIPR cAMP EC50 ratio
Value reported: 4.1
